B1: unmodified H3 10mer effector peptide (H3 Ala1-Ser10) [not stated] / GST-PHD1 (S287-K347) of KDM5A [human] (parent)
chain 1: ARTKQTARKS
chain 2: SVNFVDLYVCMFCGRGNNEDKLLLCDGCDDSYHTFCLIPPLPDVPKGDWRCPKCVAEECSK

Variants of: B1
assay.notes: competition-based fluorescence polarization assay
reported.conditions: with GST-PHD1 (S287-K347) of KDM5A [human]
recorded.endpoint: pKd
Numbers only, as −log10 of the molar value.

State, in one line, measured pKd of chain 1 R2A
3.69
